Entries annotated with measured inhibition
# target: 5-hydroxytryptamine receptor 2C (Homo sapiens) (UniProt P28335)
# Sequence (whole entry): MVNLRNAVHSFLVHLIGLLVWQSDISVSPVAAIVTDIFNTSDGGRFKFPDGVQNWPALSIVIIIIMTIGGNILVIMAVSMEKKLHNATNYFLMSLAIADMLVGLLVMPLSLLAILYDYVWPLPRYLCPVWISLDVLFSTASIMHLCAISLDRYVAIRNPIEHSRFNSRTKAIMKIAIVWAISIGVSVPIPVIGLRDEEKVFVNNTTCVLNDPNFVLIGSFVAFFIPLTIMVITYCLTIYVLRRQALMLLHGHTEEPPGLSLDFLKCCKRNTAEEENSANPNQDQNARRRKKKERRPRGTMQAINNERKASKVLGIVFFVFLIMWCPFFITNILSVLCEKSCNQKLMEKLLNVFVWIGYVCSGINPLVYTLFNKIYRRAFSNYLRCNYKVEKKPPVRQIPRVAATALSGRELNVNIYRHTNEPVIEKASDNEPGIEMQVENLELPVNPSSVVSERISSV
# procedure details: Displacement of [3H]Mesulergine from human 5HT2C receptor at 10 uM
Kindly provide the numeric value in % only, without the unit symbol.

Recorded results for 8 compounds are shown here.
>>> endpoint_result("CCCNC(=O)N1OCC2COc3ccccc3C21 (configuration not stated)")
14.7
>>> endpoint_result("CC(C)NC(=O)N1OCC2COc3ccccc3C21 (configuration not stated)")
28.9
>>> endpoint_result("O=C(NC1CCCCC1)N1OCC2COc3ccccc3C21 (configuration not stated)")
28.1
>>> endpoint_result("CC(C)NC(=O)N1OCC2CSc3ccc(F)cc3C21 (configuration not stated)")
55.4
>>> endpoint_result("O=C(Nc1ccccc1)N1OCC2COc3ccccc3C21 (configuration not stated)")
56.7
>>> endpoint_result("O=C(Nc1ccccc1)N1OCC2CSc3ccc(F)cc3C21 (configuration not stated)")
61.2
>>> endpoint_result("O=C(NC1CCCCC1)N1OCC2CSc3ccc(F)cc3C21 (configuration not stated)")
30
>>> endpoint_result("CCCCNC(=O)N1OCC2COc3ccccc3C21 (configuration not stated)")
23.4

Suppose we examine the compound CC(C)(C)NC(=O)N1OCC2COc3ccccc3C21 (configuration not stated) ; what inhibition value has been reported?
25.9

Entry under review: CCCNC(=O)N1OCC2CSc3ccc(F)cc3C21 (configuration not stated) . Reported inhibition?
37.4

I'd like to know its inhibition. The compound in question is Cc1ccccc1NC(=O)N1OCC2COc3ccccc3C21 (configuration not stated)
40.2

Please report the recorded inhibition for CCCCNC(=O)N1OCC2CSc3ccc(F)cc3C21 (configuration not stated) .
34.9

###

# target: UniProt P31645
# Sequence (P31645 whole entry): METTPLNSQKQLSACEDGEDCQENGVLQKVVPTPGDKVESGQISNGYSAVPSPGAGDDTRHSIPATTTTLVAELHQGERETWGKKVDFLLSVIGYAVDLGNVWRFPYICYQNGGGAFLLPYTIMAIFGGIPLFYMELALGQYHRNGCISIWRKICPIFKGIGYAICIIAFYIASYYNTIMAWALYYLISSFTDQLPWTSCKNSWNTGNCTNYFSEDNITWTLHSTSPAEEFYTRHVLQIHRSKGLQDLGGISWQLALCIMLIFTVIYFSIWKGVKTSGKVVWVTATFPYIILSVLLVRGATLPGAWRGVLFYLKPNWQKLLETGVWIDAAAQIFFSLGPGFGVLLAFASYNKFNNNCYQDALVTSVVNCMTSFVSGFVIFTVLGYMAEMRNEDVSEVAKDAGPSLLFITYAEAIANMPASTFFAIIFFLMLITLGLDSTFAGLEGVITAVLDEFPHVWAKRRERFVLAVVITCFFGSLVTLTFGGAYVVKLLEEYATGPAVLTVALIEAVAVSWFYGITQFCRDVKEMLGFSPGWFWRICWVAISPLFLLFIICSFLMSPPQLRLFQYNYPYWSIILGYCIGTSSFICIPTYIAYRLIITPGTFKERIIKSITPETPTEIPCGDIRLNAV
quantity name: Ki

What measured Ki goes with O=C(NC1CCCCC1)N1OCC2CSc3ccc(F)cc3C21 (stereo unspecified) ?
> 10 µM

###

Record type: pKi measurement. Applies to: 5-hydroxytryptamine receptor 2B (Homo sapiens, UniProt P41595)
pKi field: float, defined as -log10 of concentration (mol/L).

>>> endpoint_result("CCCNC(=O)N1OCC2COc3ccccc3C21 (stereo not given)")
5.18
>>> endpoint_result("CC(C)NC(=O)N1OCC2CSc3ccc(F)cc3C21 (stereo not given)")
6.24

Attention now turns to another entry.
Param item = CCCCNC(=O)N1OCC2CSc3ccc(F)cc3C21 (stereo not given) ; retrieve measured pKi.
6.31

All values here come from ChEMBL document CHEMBL1221330.
